# MEASURED ON: Cytochrome P450 2D6 (Homo sapiens)
# METHOD SUMMARY: Cytochrome P450 Family 2 Subfamily D Member 6 (CYP2D6) small molecule antagonists: luciferase reporter qHTS assay (AID 1671196); also: nearly all actives have a fitted effect of over 50% in size
# STUDY CONDITIONS: P450-Glo CYP2D6 enzyme assay, luciferin luminescence, 1 h; series mostly up to 115 µM
Inconclusive results are not listed. Active and inactive are the calls of the source. Calls follow the shape of the dose curve; as a rule, active = well fitted inhibition curve with a large enough effect in the repeat runs; inconclusive = weak or mixed curves; inactive = no such curve, though single readings can be large or run the other way.
Hello, when you answer, please use one of the following outcomes: active, inactive

Query: Assay outcome for CN(CCCC(O)c1cccnc1)N=O (stereo unspecified) : what was it?
Result: inactive

Query: Try the compound O=[N+]([O-])c1cc(Cl)ccc1Cl
Result: inactive

Query: Try the compound CC(C)C(=O)Cl
Result: inactive

Query: Try the compound c1ccc2c(c1)OCC(C1=NCCN1)O2 (stereo unspecified)
Result: active

Query: Try the compound NC(=O)CCl
Result: inactive

Query: Try the compound C[C@]12CC[C@@H]3c4ccc(OC(=O)N(CCCl)CCCl)cc4CC[C@H]3[C@@H]1CC[C@@H]2O
Result: inactive

Query: Try the compound C=CC(=O)OCCCCOC(=O)C=C
Result: inactive

Query: Try the compound CC(=O)c1cc(C(C)(C)C)cc2c1CCC2(C)C
Result: inactive

Query: Try the compound C[C@]12CC[C@H]3[C@@H](CCC4=CC(=O)CC[C@@]43C)[C@@H]1CC[C@@H]2O
Result: inactive

Query: Try the compound CC(C)[C@H](C(=O)O[C@H](C#N)c1cccc(Oc2ccccc2)c1)c1ccc(Cl)cc1
Result: inactive

Query: Try the compound BrC(Br)Br
Result: active

Query: Try the compound Cc1ccc(CCl)cc1
Result: inactive

Query: Try the compound CCOC(=O)CC(=O)CCl
Result: inactive

Query: Try the compound CC(C)CCCCCOC(=O)c1ccccc1C(=O)OCCCCCC(C)C
Result: active

Query: Try the compound N#C/C=C/c1ccccc1
Result: inactive

Query: Try the compound CCCCCCCCCC[N+](C)(C)CCCCCCCCCC
Result: active

Query: Try the compound O=C(O)c1cc[c]([Hg][Cl])cc1
Result: active

Query: Try the compound Cc1c(Cl)c(=O)oc2cc(OP(=O)(OCCCl)OCCCl)ccc12
Result: active

Query: Try the compound C[As+](C)(C)CC(=O)[O-]
Result: inactive

Query: Try the compound CC1(C)C(/C=C(\Cl)C(F)(F)F)C1C(=O)OC(C#N)c1cccc(Oc2ccccc2)c1 (stereo unspecified)
Result: inactive

Query: Try the compound Clc1ccc(C(Cl)(Cl)Cl)c(Cl)c1
Result: active

Query: Try the compound CN(C)CCc1c[nH]c2cccc(O)c12
Result: active

Query: Try the compound CCCCOP(=O)(CCCC)OCCCC
Result: inactive

Query: Try the compound Clc1ccc(-c2ccccc2)cc1
Result: inactive

Query: Try the compound CC(C)OC(=S)S
Result: inactive

Query: Try the compound COC[C@H](C)N(C(=O)CCl)c1c(C)csc1C
Result: inactive

Query: Try the compound O=C(NC(=O)c1c(F)cccc1F)Nc1cc(Cl)c(OC(F)(F)C(F)F)c(Cl)c1
Result: inactive

Query: Try the compound COP(=S)(OC)Oc1cc(Cl)c(Br)cc1Cl
Result: inactive

Query: Try the compound CCOCCOC(C)=O
Result: active

Query: Try the compound [Cl][Sn]([c]1ccccc1)([c]1ccccc1)[c]1ccccc1
Result: active

Query: Try the compound COCC(=O)N(c1c(C)cccc1C)[C@H](C)C(=O)OC
Result: inactive

Query: Try the compound C[C@]12CC[C@H](O)C[C@H]1CC[C@@H]1[C@@H]2C[C@@H](O)[C@]2(C)[C@@H](C3=CC(=O)OC3)CC[C@]12O
Result: inactive

Query: Try the compound Cc1cc(C(F)(C(F)(F)F)C(F)(F)F)ccc1NC(=O)c1cccc(I)c1C(=O)NC(C)(C)CS(C)(=O)=O
Result: active

Query: Try the compound CN(C)CCc1c[nH]c2ccc(O)cc12
Result: active

Query: Try the compound O=C(O)C1C2CCC(O2)C1C(=O)O (stereo unspecified)
Result: inactive

Query: Try the compound COc1ccc([N+](=O)[O-])cc1O
Result: inactive
